// provenance: patent US12338253B2

Molecular target: RET G810R (Homo sapiens (Human), UniProt P07949, G810R)
Sequence (P07949 29-1114 G810R): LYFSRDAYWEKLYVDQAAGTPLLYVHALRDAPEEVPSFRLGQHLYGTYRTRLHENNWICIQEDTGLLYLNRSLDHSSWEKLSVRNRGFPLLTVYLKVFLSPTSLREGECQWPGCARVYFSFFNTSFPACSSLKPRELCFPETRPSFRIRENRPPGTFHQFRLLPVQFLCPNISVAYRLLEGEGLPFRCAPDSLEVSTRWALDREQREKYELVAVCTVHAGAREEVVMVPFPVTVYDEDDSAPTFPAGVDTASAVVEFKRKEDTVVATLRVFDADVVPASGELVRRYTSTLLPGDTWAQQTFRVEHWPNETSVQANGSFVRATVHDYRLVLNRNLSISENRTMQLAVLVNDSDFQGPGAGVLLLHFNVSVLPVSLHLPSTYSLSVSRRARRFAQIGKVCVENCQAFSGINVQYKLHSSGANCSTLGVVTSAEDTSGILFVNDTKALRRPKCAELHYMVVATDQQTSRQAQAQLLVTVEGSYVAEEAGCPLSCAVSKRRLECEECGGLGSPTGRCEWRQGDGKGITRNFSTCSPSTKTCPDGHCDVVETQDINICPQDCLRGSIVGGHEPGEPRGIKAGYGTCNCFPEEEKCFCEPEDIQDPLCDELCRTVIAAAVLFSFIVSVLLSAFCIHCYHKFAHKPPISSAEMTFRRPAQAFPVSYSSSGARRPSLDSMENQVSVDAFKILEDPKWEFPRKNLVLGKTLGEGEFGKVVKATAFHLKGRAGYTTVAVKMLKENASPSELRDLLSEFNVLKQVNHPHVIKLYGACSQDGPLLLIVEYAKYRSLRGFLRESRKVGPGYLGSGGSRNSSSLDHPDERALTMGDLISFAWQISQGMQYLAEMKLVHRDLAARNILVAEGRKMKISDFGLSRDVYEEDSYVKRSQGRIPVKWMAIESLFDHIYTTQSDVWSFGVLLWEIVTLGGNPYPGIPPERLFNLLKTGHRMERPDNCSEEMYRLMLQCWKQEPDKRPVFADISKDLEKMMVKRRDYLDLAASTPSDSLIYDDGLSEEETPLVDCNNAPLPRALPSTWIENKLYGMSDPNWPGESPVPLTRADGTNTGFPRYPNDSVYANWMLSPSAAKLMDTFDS
Assay: HTRF kinase activity test, RET G810R
Conditions: HTRF KinEASE-TK
Exercise: for every item that follows, state its recorded pIC50.
Answers are plain numbers, as −log10 of the molar value.

Worked cases, pIC50 given:
{"smiles text": "COc1ccc(CN2C3CC2CN(c2cnc(-c4cc(OCCF)cn5nc6[nH]ncc6c45)cn2)C3)cn1", "experimental target": "RET G810R (Homo sapiens (Human), UniProt P07949, G810R)", "value type": "pIC50", "numeric readout": 8.54}
{"smiles text": "CCCOc1cc(-c2ccc(N3CC4CC(C3)N4Cc3ccc(OC)nc3)nc2)c2c3cn[nH]c3nn2c1", "experimental target": "RET G810R (Homo sapiens (Human), UniProt P07949, G810R)", "value type": "pIC50", "numeric readout": 8.54}

Hi, could you look up pIC50 for each item in my list?
1. CCOc1cc(-c2ccc(N3CC4CC(C3)N4Cc3ccc(OC)nc3)nc2)c2c3cn[nH]c3nn2c1
2. COCCOc1cc(-c2ccc(N3CC4CC(C3)N4Cc3ccc(OC)nc3)nc2)c2c3cn[nH]c3nn2c1
3. CO[C@@H](C(=O)N1CCN(c2ccc(-c3cc(OCCF)cn4nc5[nH]ncc5c34)cn2)CC1)c1ccccc1

Data returned:
1. 8.72
2. 8.57
3. 9.22

Hi, could you look up pIC50 for each item in my list?
1. COc1ccc(CN2C3CC2CN(c2ccc(-c4cc(OCCBr)cn5nc6[nH]ncc6c45)cn2)C3)cn1
2. COc1ccc(CN2C3CC2CN(c2ccc(-c4cc(OCCF)cn5nc6[nH]ncc6c45)cn2)C3)cn1

Data returned:
1. 8.10
2. 9.00

----------
Exercise: for every item that follows, state its recorded Tumor growth inhibition rate.
System: Ba/F3 cell KIF5B-RET-V804M fusion xenograft model
Experiment: Pharmacodynamic test on Ba/F3 cell KIF5B-RET-V804M fusion xenograft model
Format: in vivo, BALB/c nude mice
Conditions: 10 mg/kg, oral, twice a day; end of the control experiment (day 8 of the administration)
Answers are plain numbers, in %.

Worked cases, Tumor growth inhibition rate given:
{"compound": "COc1ccc(CN2C3CC2CN(c2ccc(-c4cc(OCC(F)F)cn5nc6[nH]ncc6c45)cn2)C3)cn1", "value type": "Tumor growth inhibition rate", "numeric readout": 96}
{"compound": "COc1ccc(CN2C3CC2CN(c2ccc(-c4cc(OCCF)cn5nc6[nH]ncc6c45)cn2)C3)cn1", "value type": "Tumor growth inhibition rate", "numeric readout": 92}
{"compound": "CCOc1cc(-c2ccc(N3CC4CC(C3)N4Cc3ccc(OC)nc3)nc2)c2c3cn[nH]c3nn2c1", "value type": "Tumor growth inhibition rate", "numeric readout": 94}

Next compound, Tumor growth inhibition rate to be filled in.
Data request: Consider the compound COc1ccc(CN2C3CC2CN(c2ccc(-c4cc(OCC(C)(C)O)cn5ncc(C#N)c45)cn2)C3)cn1 [Selpercatinib(LOXO-292), Selpercatinib, reference compound] and give its measured Tumor growth inhibition rate.
Data returned: 49

----------
Exercise: for every item that follows, state its recorded pIC50.
Molecular target: RET G810R (Homo sapiens (Human), UniProt P07949, G810R)
Assay: HTRF kinase activity test, RET G810R
Settings: HTRF KinEASE-TK
Answers are plain numbers, as −log10 of the molar value.

Worked cases, pIC50 given:
{"molecule": "COc1ccc(CN2C3CC2CN(c2ccc(-c4cc(OCC(F)(F)F)cn5nc6[nH]ncc6c45)cn2)C3)cn1 [Compound 30]", "value type": "pIC50", "numeric readout": 8.23}
{"molecule": "O=C([C@H](O)c1ccccc1)N1CCN(c2ccc(-c3cc(OCCF)cn4nc5[nH]ncc5c34)cn2)CC1 [Compound 20]", "value type": "pIC50", "numeric readout": 8.80}
{"molecule": "COc1ccc(C(=O)N2CCN(c3ccc(-c4cc(OCCF)cn5nc6[nH]ncc6c45)cn3)CC2)cn1 [Compound 22]", "value type": "pIC50", "numeric readout": 8.77}
{"molecule": "COc1ccc(CN2C3CC2CN(c2ccc(-c4cc(OCCOC(F)F)cn5nc6[nH]ncc6c45)cn2)C3)cn1 [Compound 27]", "value type": "pIC50", "numeric readout": 8.32}
{"molecule": "COc1ccc(CN2C3CC2CN(c2ccc(-c4cc(OCc5ccccc5)cn5nc6[nH]ncc6c45)cn2)C3)cn1 [Compound 3]", "value type": "pIC50", "numeric readout": 7.79}

Hi, could you look up pIC50 for each item in my list?
1. COc1ccc(CN2C3CC2CN(c2ccc(-c4cc(C#N)cn5nc6[nH]ncc6c45)cn2)C3)cn1 [Compound 5]
2. COc1ccc(CN2C3CC2CN(c2ccc(-c4cc(OCC(C)C)cn5nc6[nH]ncc6c45)cn2)C3)cn1 [Compound 39]
3. COc1ccc(CN2C3CC2CN(c2ccc(-c4cc(OCC(F)F)cn5nc6[nH]ncc6c45)cn2)C3)cn1 [Compound 32]
4. COc1ccc(CN2C3CC2CN(c2ccc(-c4cc(OCCCF)cn5nc6[nH]ncc6c45)cn2)C3)cn1 [Compound 12]
5. COc1ccc(CN2C3CC2CN(c2ccc(-c4cc(OCCO)cn5nc6[nH]ncc6c45)cn2)C3)cn1 [Compound 10]
6. COc1ccc(CN2C3CC2CN(c2ccc(-c4cc(OCCCCF)cn5nc6[nH]ncc6c45)cn2)C3)cn1 [Compound 13]

Data returned:
1: 7.42; 2: 7.52; 3: 8.64; 4: 8.41; 5: 8.42; 6: 8.51

Hi, could you look up pIC50 for each item in my list?
1. COc1cc(-c2ccc(N3CC4CC(C3)N4Cc3ccc(OC)nc3)nc2)c2c3cn[nH]c3nn2c1 [Compound 36]
2. COc1ccc(CN2C3CC2CN(c2ccc(-c4cc(OCCCl)cn5nc6[nH]ncc6c45)cn2)C3)cn1 [Compound 14]
3. O=C(Cc1ccccn1)N1CCN(c2ccc(-c3cc(OCCF)cn4nc5[nH]ncc5c34)cn2)CC1 [Compound 19]
4. COc1ccc(CN2C3CC2CN(c2cnc(-c4cc(OCC(F)F)cn5nc6[nH]ncc6c45)cn2)C3)cn1 [Compound 25]
5. COc1cc(-c2cnc(N3CC4CC(C3)N4Cc3ccc(OC)nc3)cn2)c2c3cn[nH]c3nn2c1 [Compound 24]
6. CCN(CC)C(=O)N1CCN(c2ccc(-c3cc(OCCF)cn4nc5[nH]ncc5c34)cn2)CC1 [Compound 18]

Data returned:
1. 8.77
2. 8.66
3. 8.32
4. 8.37
5. 8.64
6. 7.72

Hi, could you look up pIC50 for each item in my list?
1. COc1ccc(CN2C3CC2CN(c2ccc(-c4cc(OCC#N)cn5nc6[nH]ncc6c45)cn2)C3)cn1 [Compound 26]
2. CCCCOc1cc(-c2ccc(N3CC4CC(C3)N4Cc3ccc(OC)nc3)nc2)c2c3cn[nH]c3nn2c1 [Compound 11]

Data returned:
1. 8.68
2. 8.00
